Numbers sourced from patent US20240376097A1.

# System tested: recombinant human Bcl-2 D103Y protein (Homo sapiens (Human), UniProt P10415, D103Y)
# Assay remarks: Bcl-2-D103Y Biochemical Assay (TR-FRET)
# Assay type: binding
# Settings: ratio of IC50
Property measured: Ratio of Bcl-2 D103Y/Bcl-2 WT

1. CC(C)c1ccccc1[C@@H]1CN(Cc2ccc3c(c2)OCCC3)CCN1C1CC2(CCN(c3ccc(C(=O)NS(=O)(=O)c4ccc(NC[C@H]5CC[C@](C)(O)CC5)c([N+](=O)[O-])c4)c(Oc4cnc5[nH]ccc5c4)c3)CC2)C1	1.9
2. COc1ccc(CN2CCN(C3CC4(C3)CN(c3ccc(C(=O)NS(=O)(=O)c5ccc(NC[C@H]6CC[C@](C)(O)CC6)c([N+](=O)[O-])c5)c(Oc5cnc6[nH]cc(F)c6c5)c3)C4)[C@H](c3ccccc3C(C)C)C2)cc1OC [Example 141a]	1.3

====

# Assay remarks: Metabolic Stability Study, liver microsome incubation (human)
# Format: in vitro ADME
# Settings: human liver microsomes 0.5 mg/mL, 1 μM compound, NADPH; read-out: CLint (μL × min^−1 × mg^−1) Human
Mark Satisfied for reported microsomal CLint at 1 μM of 2 µL/min/mg or greater; mark Not satisfied for anything smaller.

1. COc1ccc(CN2CCN(C3CC4(CCN(c5ccc(C(=O)NS(=O)(=O)c6ccc(NCC7(F)CCOCC7)c([N+](=O)[O-])c6)c(Oc6cnc7[nH]ccc7c6)c5)CC4)C3)[C@H](c3ccccc3C(C)C)C2)cc1 (single isomer, unassigned)	Satisfied
2. COc1cc(CN2CCN(C3CC4(C3)CN(c3ccc(C(=O)NS(=O)(=O)c5ccc(NC[C@H]6CC[C@](C)(O)CC6)c([N+](=O)[O-])c5)c(Oc5cnc6[nH]cc(F)c6c5)c3)C4)[C@H](c3ccccc3C(C)C)C2)cc2cc(C)oc12	Satisfied
3. CC(C)c1ccccc1C1CN(Cc2ccc(C(F)(F)F)cc2)CCN1C1CC2(CCN(c3ccc(C(=O)NS(=O)(=O)c4ccc(NC[C@H]5CC[C@](C)(O)CC5)c([N+](=O)[O-])c4)c(Oc4cnc5[nH]ccc5c4)c3)CC2)C1 (some centres unmarked)	Not satisfied
4. CC(C)c1ccccc1[C@@H]1CN(Cc2ccc(OC3CC3)c(OC3CC3)c2)CCN1C1CC2(C1)CN(c1ccc(C(=O)NS(=O)(=O)c3ccc(NC[C@H]4CC[C@](C)(O)CC4)c([N+](=O)[O-])c3)c(Oc3cnc4[nH]cc(F)c4c3)c1)C2	Not satisfied
5. COc1cc(CN2CCN(C3CC4(C3)CN(c3ccc(C(=O)NS(=O)(=O)c5ccc(NC[C@H]6CC[C@](C)(O)CC6)c([N+](=O)[O-])c5)c(Oc5cnc6[nH]ccc6c5)c3)C4)[C@H](c3ccccc3C(C)C)C2)ccc1C1CC1	Satisfied
6. COc1cc(CN2CCN(C3CC4(C3)CN(c3ccc(C(=O)NS(=O)(=O)c5ccc(NC[C@H]6CC[C@](C)(O)CC6)c([N+](=O)[O-])c5)c(Oc5cnc6[nH]cc(F)c6c5)c3)C4)[C@H](c3ccccc3C(C)C)C2)ccc1OC1CC1	Not satisfied
7. CC(C)c1ccccc1C1CC(Cc2ccccc2)CCN1C1CC2(CCN(c3ccc(C(=O)NS(=O)(=O)c4ccc(NC[C@H]5CC[C@](C)(O)CC5)c([N+](=O)[O-])c4)c(Oc4cnc5[nH]ccc5c4)c3)CC2)C1 (some centres unmarked)	Satisfied
8. COc1ccc(CN2CCN(C3CC4(C3)CN(c3ccc(C(=O)NS(=O)(=O)c5ccc(NC[C@H]6CC[C@](C)(O)CC6)c([N+](=O)[O-])c5)c(Oc5cnc6[nH]cc(F)c6c5)c3)C4)[C@H](c3ccccc3C(C)C)C2)cc1OC [Example 141a]	Satisfied

====

This section presents compounds with their documented half-life at 1 μM values.
# Assay remarks: Metabolic Stability Study, liver microsome incubation (mouse)
# Assay type: in vitro ADME
# Settings: mouse liver microsomes 0.5 mg/mL, 1 μM compound, NADPH; NA^# = very stable, beyond the detection limits; read-out: T1/2 (min) mouse
# Description: Biological Example: Metabolic Stability Study The metabolic stability of some compounds was evaluated by using the liver microsome incubation system in vitro. […] Samples were quenched at three time points (0, 30, 60 min) with organic solvent containing internal standards, and the supernatant was analyzed for parent loss via LC-MS/MS. […] The value of CLint and T1/2 of Example F132b in WO2019210818 and representative compounds of the disclosure were determined, and the results are shown in Table 5.
Property measured: half-life at 1 μM (min)

1) COc1ccc(CN2CCN(C3CC4(CCN(c5ccc(C(=O)NS(=O)(=O)c6ccc(NC[C@H]7CC[C@](C)(O)CC7)c([N+](=O)[O-])c6)c(Oc6cnc7[nH]ccc7c6)c5)CC4)C3)C(c3ccccc3C(C)C)C2)cn1 (some centres unmarked)	159
2) CC(C)c1ccccc1[C@@H]1CN(Cc2cccc3c2OCCO3)CCN1C1CC2(CCN(c3ccc(C(=O)NS(=O)(=O)c4ccc(NC[C@H]5CC[C@](C)(O)CC5)c([N+](=O)[O-])c4)c(Oc4cnc5[nH]ccc5c4)c3)CC2)C1 [Example 79a]	124

====

# System tested: recombinant human Bcl-2-G101V protein (Homo sapiens (Human), UniProt P10415, G101V)
# Assay remarks: Bcl-2-G101V TR-FRET Assay
# Type: binding
# Settings: Bcl-2 G101V mutant, TR-FRET; read-out: Biochemical assay (IC50, nM) Bcl-2 G101V
This section presents molecules with their documented IC50 values.
Property measured: IC50

1) CC(C)c1ccccc1C1CN(Cc2ccc(F)cc2)CCN1C1CC2(CCN(c3ccc(C(=O)NS(=O)(=O)c4ccc(NC[C@H]5CC[C@](C)(O)CC5)c([N+](=O)[O-])c4)c(Oc4cnc5[nH]ccc5c4)c3)CC2)C1 (stereo partly shown) [Example 28]	0.82 nM
2) CC(C)c1ccccc1[C@@H]1CN(Cc2ccc3c(c2)OCC3)CCN1C1CC2(CCN(c3ccc(C(=O)NS(=O)(=O)c4ccc(NC[C@H]5CC[C@](C)(O)CC5)c([N+](=O)[O-])c4)c(Oc4cnc5[nH]ccc5c4)c3)CC2)C1 [Example 304]	0.41 nM
3) COc1cc(CN2CCN(C3CC4(CCN(c5ccc(C(=O)NS(=O)(=O)c6ccc(NC[C@H]7CC[C@](C)(O)CC7)c([N+](=O)[O-])c6)c(Oc6cnc7[nH]ccc7c6)c5)CC4)C3)C(c3ccccc3C(C)C)C2)cc(OC)c1OC (stereo partly shown) [Example 75]	0.28 nM
4) COc1cc(CN2CCN(C3CC4(C3)CN(c3ccc(C(=O)NS(=O)(=O)c5ccc(NC[C@H]6CC[C@](C)(O)CC6)c([N+](=O)[O-])c5)c(Oc5cnc6[nH]ccc6c5)c3)C4)[C@H](c3ccccc3C(C)C)C2)cc2occc12 [Example 331]	0.62 nM

====

# System tested: recombinant human Bcl-2 D103Y protein (Homo sapiens (Human), UniProt P10415, D103Y)
# Assay remarks: Bcl-2-D103Y Biochemical Assay (TR-FRET)
# Settings: TR-FRET, FITC labeled Bak peptide
pIC50: −log10 of the molar value.
Property measured: pIC50

1. COc1ccc(C(=O)N2CCN(C3CC4(C3)CN(c3ccc(C(=O)NS(=O)(=O)c5ccc(NC[C@H]6CC[C@](C)(O)CC6)c([N+](=O)[O-])c5)c(Oc5cnc6[nH]cc(F)c6c5)c3)C4)[C@H](c3ccccc3C(C)C)C2)cc1	9.92
2. COc1cc(CN2CCN(C3CC4(C3)CN(c3ccc(C(=O)NS(=O)(=O)c5ccc(NC[C@H]6CC[C@](C)(O)CC6)c([N+](=O)[O-])c5)c(Oc5cnc6[nH]cc(F)c6c5)c3)C4)[C@H](c3ccccc3C(C)C)C2)ccc1C1COC1	9.89
3. [2H]C([2H])([2H])Oc1ccc(CN2CCN(C3CC4(C3)CN(c3ccc(C(=O)NS(=O)(=O)c5ccc(NC[C@H]6CC[C@](C)(O)CC6)c([N+](=O)[O-])c5)c(Oc5cnc6[nH]cc(F)c6c5)c3)C4)[C@H](c3ccccc3C(C)C)C2)cc1OC([2H])([2H])[2H]	10.05
4. CCOc1ccc(CN2CCN(C3CC4(CCN(c5ccc(C(=O)NS(=O)(=O)c6ccc(NC[C@H]7CC[C@](C)(O)CC7)c([N+](=O)[O-])c6)c(Oc6cnc7[nH]ccc7c6)c5)CC4)C3)C(c3ccccc3C(C)C)C2)cc1 (some centres unmarked)	9.14
5. COc1ccc(CN2CCN(C3CC4(CCN(c5ccc(C(=O)NS(=O)(=O)c6ccc(NC[C@H]7CC[C@](C)(O)CC7)c([N+](=O)[O-])c6)c(Oc6cnc7[nH]cc(F)c7c6)c5)CC4)C3)[C@H](c3ccccc3C(C)C)C2)cc1OC	9.96
6. COc1cc(CN2CCN(C3CC4(CCN(c5ccc(C(=O)NS(=O)(=O)c6ccc(NC[C@H]7CC[C@](C)(O)CC7)c([N+](=O)[O-])c6)c(Oc6cnc7[nH]ccc7c6)c5)CC4)C3)C(c3ccccc3C(C)C)C2)cnc1OC (some centres unmarked)	10.21
7. COc1ccc(CN2CCN(C3CC4(CCN(c5ccc(C(=O)NS(=O)(=O)c6ccc(NCC7(F)CCC(C)(O)CC7)c([N+](=O)[O-])c6)c(Oc6cnc7[nH]ccc7c6)c5)CC4)C3)[C@H](c3ccccc3C(C)C)C2)cc1 (some centres unmarked) [Example 225]	10.00
8. COc1cc(CN2CCN(C3CC4(CCN(c5ccc(C(=O)NS(=O)(=O)c6ccc(NC[C@H]7CC[C@](C)(O)CC7)c([N+](=O)[O-])c6)c(Oc6cnc7[nH]ccc7c6)c5)CC4)C3)C(c3ccccc3C(C)C)C2)cc(C)c1OC (some centres unmarked)	9.43
